Where these numbers come from: ChEMBL document CHEMBL4673245

- targetEntity: Estrogen receptor (Homo sapiens) (UniProt P03372)
- methodSummary: Induction of ERalpha degradation in human CAMA1 cells assessed as decrease in ER-alpha level at 0.1 uM by Western blot analysis relative to fulvestrant
- Type: cell-based
- Parameters: scale not given: the % may be the effect or the level left
- experimentalParameters: CAMA-1
propertyName: Activity
# number then unit; no other words

>  <structureNotation>
C[C@@H]1Cc2c(ccc3[nH]ncc23)[C@@H](c2ccc(NC3CN(CCCF)C3)cn2)N1CC1(F)CC1

>  <Activity>
102%

$$$$
>  <structureNotation>
COc1cc(NC2CN(CCCF)C2)ccc1[C@@H]1c2ccc3[nH]ncc3c2C[C@@H](C)N1CC(F)F

>  <Activity>
100%

$$$$

Now consider a different molecule.
Qu. Record request: Activity value, item `COc1cc(NC2CN(CCCF)C2)ccc1[C@@H]1c2ccc3[nH]ncc3c2C[C@@H](C)N1CC1(F)CC1`
Ans. 84%

* * *

- targetEntity: Estrogen receptor (Homo sapiens) (UniProt P03372)
- methodSummary: Induction of ERalpha degradation in human CAMA1 cells assessed as decrease in ER-alpha level at 0.1 uM by Western blot analysis relative to fulvestrant
- Format: cell-based
- Set-up: scale not given: the % may be the effect or the level left
- experimentalParameters: CAMA-1
propertyName: Activity
# number then unit; no other words

>  <structureNotation>
COc1cc(OCCN2CC(CF)C2)ccc1[C@@H]1c2ccc3[nH]ncc3c2C[C@@H](C)N1CC(C)C

>  <Activity>
74%

$$$$

Qu. // map `C[C@@H]1Cc2c(ccc3[nH]ncc23)[C@@H](c2c(F)cc(OCCN3CC(CF)C3)cc2F)N1CC(C)(C)F` to recorded Activity (system: Estrogen receptor (Homo sapiens) (UniProt P03372))
Ans. 66%

Qu. // map `C[C@@H]1Cc2c(ccc3[nH]ncc23)[C@@H](c2ccc(N[C@H]3CCN(CCCF)C3)cn2)N1CC(F)(F)F` to recorded Activity (system: Estrogen receptor (Homo sapiens) (UniProt P03372))
Ans. 104%

Qu. // map `COc1cc(NC2CN(CCCF)C2)ccc1[C@@H]1c2ccc3[nH]ncc3c2C[C@@H](C)N1CC(C)(F)F` to recorded Activity (system: Estrogen receptor (Homo sapiens) (UniProt P03372))
Ans. 101%

Qu. // map `C[C@@H]1Cc2c(ccc3[nH]ncc23)[C@@H](c2ccc(OCCN3CC(CF)C3)cn2)N1CC(F)(F)F` to recorded Activity (system: Estrogen receptor (Homo sapiens) (UniProt P03372))
Ans. 80%

Qu. // map `COc1cc(NC2CN(CCCF)C2)ccc1[C@@H]1c2ccc3[nH]ncc3c2C[C@@H](C)N1CC(C)(C)F` to recorded Activity (system: Estrogen receptor (Homo sapiens) (UniProt P03372))
Ans. 89%

Qu. // map `C[C@@H]1Cc2c(ccc3[nH]ncc23)[C@@H](c2ccc(NC3CN(CCCF)C3)cn2)N1CC(F)(F)CO` to recorded Activity (system: Estrogen receptor (Homo sapiens) (UniProt P03372))
Ans. 105%

* * *

Listing of entries alongside the reported fraction unbound.
- methodSummary: Fraction unbound in dog plasma
- Assay type: ADME, cell-free, Canis lupus familiaris
Please reply with the value in numeric form only.

>  <structureNotation>
C[C@@H]1Cc2c(ccc3[nH]ncc23)[C@@H](c2ccc(NC3CN(CCCF)C3)cn2)N1CC(F)(F)F

>  <fraction unbound>
0.15

$$$$

Now consider a different compound.
Qu. Record request: fraction unbound value, item `COc1cc(NC2CN(CCCF)C2)ccc1[C@@H]1c2ccc3[nH]ncc3c2C[C@@H](C)N1CC1(F)CC1`
Ans. 0.22

* * *

- targetEntity: UniProt P03372
- methodSummary: Displacement of fluormone ES2 green reagent from human GST-tagged ERalpha LBD (282 to 595 residues) expressed in baculovirus infected insect cells incubated for 1 hrs by TR-FRET Lanthascreen assay
The label is 1 for IC50 below 5 nM and 0 for IC50 equal to or exceeding 5 nM.

Solved cases below.
>  <structureNotation>
CC(C)CN1[C@H](c2ccc(OCCN3CC(CF)C3)cc2)c2ccc3[nH]ncc3c2C[C@H]1C

>  <category>
1

$$$$
>  <structureNotation>
C[C@@H]1Cc2c(ccc3[nH]ccc23)[C@@H](c2ccc(NC3CN(CCCF)C3)cn2)N1CC(F)(F)F

>  <category>
1

$$$$
>  <structureNotation>
C[C@@H]1Cc2c(ccc3[nH]ncc23)[C@@H](c2ccc(NC3CN(CCCF)C3)cn2)N1CC1(F)CC1

>  <category>
0

$$$$
>  <structureNotation>
CC(C)CN1[C@H](c2ccc(OCCN3CC(CF)C3)cn2)c2ccc3[nH]ncc3c2C[C@H]1C

>  <category>
0

$$$$
>  <structureNotation>
COc1cc(NC2CN(CCCF)C2)ccc1[C@@H]1c2ccc3[nH]ncc3c2C[C@@H](C)N1CC(F)F

>  <category>
1

$$$$
>  <structureNotation>
C[C@@H]1Cc2c(ccc3[nH]ncc23)[C@@H](c2ccc(OCCN3CC(CF)C3)cn2)N1CC(F)(F)F

>  <category>
1

$$$$

Now for a further compound.
Qu. Regarding `COc1cc(OCCN2CC(CF)C2)ccc1[C@@H]1c2ccc3[nH]ncc3c2C[C@@H](C)N1CC(C)C` , kindly confirm whether its IC50 is beneath 5 nM.
Ans. 0

* * *

- methodSummary: Oral bioavailability in mouse at 5 mg/kg
- Type: ADME, organism-based
- experimentalParameters: in vivo
propertyName: bioavailability (%)
Write the value in % as a bare number.

Qu. Record request: bioavailability value, item `C[C@@H]1Cc2c(ccc3[nH]ncc23)[C@@H](c2ccc(NC3CN(CCCF)C3)cn2)N1CC(F)(F)F`
Ans. 16

* * *

- methodSummary: Fraction absorbed in rat at 0.5 mg/kg, iv or 1 mg/kg, po
- Format: ADME, organism-based
- experimentalParameters: in vivo, read-out: Fabs
propertyName: Fa

Qu. Record request: Fa value, item `C[C@@H]1Cc2c(ccc3[nH]ncc23)[C@@H](c2ccc(NC3CN(CCCF)C3)cn2)N1CC(F)(F)F`
Ans. > 95%

* * *

Listing of entries alongside the reported Activity.
- targetEntity: Estrogen receptor (Homo sapiens)
- Sequence (P03372 whole entry): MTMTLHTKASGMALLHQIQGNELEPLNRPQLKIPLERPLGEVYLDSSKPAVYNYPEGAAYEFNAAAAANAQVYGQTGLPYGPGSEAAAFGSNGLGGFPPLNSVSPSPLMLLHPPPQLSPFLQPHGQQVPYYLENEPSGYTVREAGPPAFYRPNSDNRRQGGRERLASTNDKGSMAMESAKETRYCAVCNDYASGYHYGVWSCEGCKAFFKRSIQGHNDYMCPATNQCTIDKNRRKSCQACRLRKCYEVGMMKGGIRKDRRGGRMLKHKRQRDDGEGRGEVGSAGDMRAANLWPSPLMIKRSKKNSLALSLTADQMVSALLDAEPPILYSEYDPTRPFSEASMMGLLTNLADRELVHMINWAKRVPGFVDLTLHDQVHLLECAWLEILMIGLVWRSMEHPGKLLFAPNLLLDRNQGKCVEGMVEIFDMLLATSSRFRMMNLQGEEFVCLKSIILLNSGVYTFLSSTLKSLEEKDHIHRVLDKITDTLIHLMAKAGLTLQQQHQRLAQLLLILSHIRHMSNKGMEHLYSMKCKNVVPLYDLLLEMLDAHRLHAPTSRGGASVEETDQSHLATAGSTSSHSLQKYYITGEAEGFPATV
- methodSummary: Induction of ERalpha degradation in human MCF7 cells assessed as decrease in ER-alpha level at 0.1 uM by Western blot analysis relative to fulvestrant
- Type: cell-based
- Parameters: scale not given: the % may be the effect or the level left
Write the value in % as a bare number.

>  <structureNotation>
C[C@@H]1Cc2c(ccc3[nH]ncc23)[C@@H](c2ccc(OCCN3CC(CF)C3)cn2)N1CC(F)F

>  <targetEntity>
Estrogen receptor (Homo sapiens)

>  <units>
%

>  <Activity>
97

$$$$
>  <structureNotation>
C[C@@H]1Cc2c(ccc3[nH]ccc23)[C@@H](c2ccc(NC3CN(CCCF)C3)cn2)N1CC(F)(F)F

>  <targetEntity>
Estrogen receptor (Homo sapiens)

>  <units>
%

>  <Activity>
98

$$$$

Qu. Record request: Activity value, item `C[C@@H]1Cc2c(ccc3[nH]ncc23)[C@@H](c2c(F)cc(OCCN3CC(CF)C3)cc2F)N1CC(C)(C)F`
Ans. 84

Qu. Record request: Activity value, item `C[C@@H]1Cc2c(ccc3[nH]ncc23)[C@@H](c2ccc(N[C@H]3CCN(CCCF)C3)cn2)N1CC(F)(F)F`
Ans. 95

Qu. Record request: Activity value, item `C[C@@H]1Cc2c(ccc3[nH]ncc23)[C@@H](c2ccc(N(C)C3CN(CCCF)C3)cn2)N1CC(F)(F)F`
Ans. 85

Qu. Record request: Activity value, item `COc1cc(NC2CN(CCCF)C2)ccc1[C@@H]1c2ccc3[nH]ncc3c2C[C@@H](C)N1CC(F)(F)F`
Ans. 95

Qu. Record request: Activity value, item `COc1cc(NC2CN(CCCF)C2)ccc1[C@@H]1c2ccc3[nH]ncc3c2C[C@@H](C)N1CC(F)F`
Ans. 99

Qu. Record request: Activity value, item `COc1cc(NC2CN(CCCF)C2)ccc1[C@@H]1c2ccc3[nH]ncc3c2C[C@@H](C)N1CC(C)(C)F`
Ans. 86

Qu. Record request: Activity value, item `COc1cc(OCCN2CC(CF)C2)ccc1[C@@H]1c2ccc3[nH]ncc3c2C[C@@H](C)N1CC1(F)CC1`
Ans. 79

Qu. Record request: Activity value, item `COc1cc(OCCN2CC(CF)C2)ccc1[C@@H]1c2ccc3[nH]ncc3c2C[C@@H](C)N1CC1(F)COC1`
Ans. 79

Qu. Record request: Activity value, item `COc1cc(NC2CN(CCCF)C2)ccc1[C@@H]1c2ccc3[nH]ncc3c2C[C@@H](C)N1CC(C)(F)F`
Ans. 80

Qu. Record request: Activity value, item `C[C@@H]1Cc2c(ccc3[nH]ncc23)[C@@H](c2ccc(NC3CN(CCCF)C3)cn2)N1CC1(F)CC1`
Ans. 90

Qu. Record request: Activity value, item `COc1cc(NC2CN(CCCF)C2)ccc1[C@@H]1c2ccc3[nH]ncc3c2C[C@@H](C)N1CC1(F)CC1`
Ans. 89

Qu. Record request: Activity value, item `COc1cc(OCCN2CC(CF)C2)ccc1[C@@H]1c2ccc3[nH]ncc3c2C[C@@H](C)N1CC(C)(C)F`
Ans. 69

Qu. Record request: Activity value, item `C[C@@H]1Cc2c(ccc3[nH]ncc23)[C@@H](c2ccc(OCCN3CC(CF)C3)cn2)N1CC(F)(F)F`
Ans. 91

Qu. Record request: Activity value, item `C[C@@H]1Cc2c(ccc3[nH]ncc23)[C@@H](c2ccc(OCCN3CC(CF)C3)cn2)N1CC1(F)CC1`
Ans. 75
